Reported MDR ratio values are given for each entry in this list.
System: MCF7-DOX
Assay Info: Anti MDR activity was expressed as MDR ratio or MDR fold reversal in doxorubicin resistant human breast carcinoma tumor cell line MCF-7/DOX
Type: functional
Please respond with just the number, no unit label.

Previously resolved entries follow.
Molecule	MDR ratio
OCCN1CCN(CCCN2c3ccccc3Sc3ccc(Cl)cc32)CC1 [PERPHENAZINE]	2
CCN(CC)CC/C=C1/c2ccccc2Sc2ccc(Cl)cc21	4
OCCN1CCN(CC/C=C2/c3ccccc3Sc3ccc(Cl)cc32)CC1 (stereo in doubt; 34) [ZUCLOPENTHIXOL]	2.6
CN(C)CCCN1c2ccccc2[S+]([O-])c2ccc(Cl)cc21 (stereo unspecified) [CHLOROPROMAZINE SULFOXIDE]	2.2
CN(C)C/C=C1/c2ccccc2Sc2ccc(Cl)cc21	1.1

Now, please, on to the next molecule.
[ask] Fill in the blank: the reported MDR ratio of CCN(CC)CCCC(C)Nc1c2ccc(Cl)cc2nc2ccc(OC)cc12 (stereo unspecified) [QUINACRINE] is ____.
[reply] 1.3

====

Test system: MCF7-DOX
Assay Info: Anti MDR activity was expressed as MDR ratio or MDR fold reversal in doxorubicin resistant human breast carcinoma tumor cell line MCF-7/DOX
Assay type: functional
Measurement Kind: MDR ratio
Please respond with just the number, no unit label.

Previously resolved entries follow.
Structure String	MDR ratio
CN(C)CCCN1c2ccccc2CCc2ccccc21	2.5
NCCCN1c2ccccc2Sc2ccc(Cl)cc21	1.1
CN(C)CC/C=C1/c2ccccc2Sc2ccc(Cl)cc21	2

[ask] So what MDR ratio did CCN(CC)CCCN1c2ccccc2Sc2ccc(Cl)cc21 get with MCF7-DOX?
[reply] 2.2

[ask] Follow-up entry: CNCCCN1c2ccccc2Sc2ccc(Cl)cc21
[reply] 1.2
